System tested: CXC-motif chemokine ligand 10 (CXCL10) (human, UniProt P02778 22-98)
Assay overview: BLI
Quantity kind: Kd (nM)
Answer in nM, number only, no unit symbol.

Guide cases for Kd, answers given:
Exam item: Return reported Kd. Input binder: P1126 (natural protein, also: glycosylated) DGGKPQILQRTDKSTDSEWDPQTCPETCIPSKNITCSDGCVCVKLGEEEEGTCFNMTGVDWLGSPSDD
Marked response: 7.9

Exam item: Return reported Kd. Input binder: P1086_IXORI (natural protein) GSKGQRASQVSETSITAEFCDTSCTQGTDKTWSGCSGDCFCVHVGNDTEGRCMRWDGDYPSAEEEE
Marked response: 18.7

Exam item: Return reported Kd. Input binder: P942 (natural protein, also: glycosylated) DGGNQLSGPQSSANSNEAVFCDTNCTQGTDEAWSGCRGDCFCVYVGNSTEGRCMMLSGDFDYSTPGAED
Marked response: 133

Exam item: Return reported Kd. Input binder: P1142 (natural protein, glycosylated (periodic acid–Schiff staining)) DGGKPQILQRTDHSTDSDWDPQMCPETCNPSKNISCSSECLCVTLGGGDETGTCFNMSGVDWLGHAQASDGHNDGGGASAWSHPQFEKLEHHHHHHHH
Marked response: 7.46

In the following, a different binder is considered.
Exam item: Return reported Kd. Input binder: P1100_IXORI (natural protein) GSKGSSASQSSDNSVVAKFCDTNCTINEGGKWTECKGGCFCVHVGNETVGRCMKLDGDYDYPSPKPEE
Marked response: 380

Taken from paper PMC6643034.
